Please provide measured TGI for the entries that follow.
Tested on: HS 578T breast
Assay: NCI tumour cell line growth inhibition, 48 h
Supply the numeric figure in µM, leaving out any unit text.

Inquiry: Tell me reported TGI for C=C1C(=O)OC2C3C(=C)[C@@H](OC(C)=O)CC3C(C)=CC(OC(=O)C(C)(O)C(C)OC(C)=O)[C@@H]12 (stereo not given in full) , tested with HS 578T breast.
Reply text: 40.9

Inquiry: Tell me reported TGI for "COc1ccc(OC)c(CC(=O)c2ccc(O)c(C(=O)NCCc3ccc(F)cc3)c2)c1" , tested with HS 578T breast.
Reply text: 8.69

Inquiry: Tell me reported TGI for "CC(=O)Nc1ccccc1S(=O)(=O)c1c(-c2c(C)c(Cl)c(C)c(Cl)c2C)noc1C" , tested with HS 578T breast.
Reply text: 73.7

Inquiry: Tell me reported TGI for "COc1cccc2c(=O)c3c(O)c4cc(N(C)C)ccc4c(OC(C)=O)c3oc12" , tested with HS 578T breast.
Reply text: 69.5

Inquiry: Tell me reported TGI for "Nc1nc(SCC(=O)c2ccccc2)nc2nc3c(c(-c4ccccc4)c12)CCCC3" , tested with HS 578T breast.
Reply text: 64

Inquiry: Tell me reported TGI for "COc1ccc2[nH]c3c(c2c1)CCc1ccccc1-3" , tested with HS 578T breast.
Reply text: 37.4

Inquiry: Tell me reported TGI for "COc1ccc2c(c1)C(=O)/C(=C/c1ccc(OCC(=O)c3ccc(Cl)cc3)cc1)O2" , tested with HS 578T breast.
Reply text: 84.6

Inquiry: Tell me reported TGI for "C/C(O)=C/c1nc2sc(C)c(C)c2c(=O)s1" , tested with HS 578T breast.
Reply text: 74

Inquiry: Tell me reported TGI for "CCCCCCCCCCCCCCCc1ccc(C(=O)C[n+]2ccccc2)cc1" , tested with HS 578T breast.
Reply text: 4.25
